# ASSAYED SYSTEM: catalase (Bos taurus)
# Construct: Catalase (from bovine liver, Sigma C9322, 2380 U /mg solid); purchased Sigma C9322; host or cells: bovine liver
# Sequence (P00432 2-527 limits assumed): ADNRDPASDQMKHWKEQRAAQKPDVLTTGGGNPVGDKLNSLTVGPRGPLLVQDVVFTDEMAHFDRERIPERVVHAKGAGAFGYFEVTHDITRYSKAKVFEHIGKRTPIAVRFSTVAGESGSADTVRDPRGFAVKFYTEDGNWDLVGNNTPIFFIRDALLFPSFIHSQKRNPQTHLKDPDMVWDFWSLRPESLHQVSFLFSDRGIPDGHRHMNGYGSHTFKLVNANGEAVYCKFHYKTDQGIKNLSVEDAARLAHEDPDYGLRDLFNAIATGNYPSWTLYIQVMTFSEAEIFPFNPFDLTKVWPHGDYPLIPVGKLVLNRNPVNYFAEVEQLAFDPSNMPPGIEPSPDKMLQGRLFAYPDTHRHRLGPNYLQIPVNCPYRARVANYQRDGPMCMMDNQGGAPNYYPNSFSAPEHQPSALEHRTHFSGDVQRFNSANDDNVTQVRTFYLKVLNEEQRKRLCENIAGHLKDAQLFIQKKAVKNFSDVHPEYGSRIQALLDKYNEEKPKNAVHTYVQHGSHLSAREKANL
# ASSAY EXPLANATION: Activity recovery of catalase in dry formulations following gamma irradiation
# Format: physicochemical, bovine
# CONDITION SUMMARY: Table 10, superoxide scavengers; catalase 100 μg mL^−1 prior to drying; dry; 25-40 kGy
Labelling field: enter 1 if recorded Enzyme activity remaining after gamma-irradiation is less than 40%. Enter 0 if it equals or exceeds that cut-off.

query: Hi there! Is Enzyme activity remaining after gamma-irradiation for OC[C@@H](O)[C@@H](O)[C@H](O)[C@H](O)CO below 40%, do you know?
result: 1

query: Is Enzyme activity remaining after gamma-irradiation of O=S(=O)(O)c1cc(O)c(O)c(S(=O)(=O)O)c1 strictly below 40%?
result: 1

query: Consider the compound CSCC[C@H](N)C(=O)O . Is its Enzyme activity remaining after gamma-irradiation strictly less than 40%?
result: 0

* * *

# ASSAYED SYSTEM: glucose oxidase (Aspergillus niger, UniProt P13006)
# Construct: purchased Biocatalysts G575P
# Sequence (P13006 17-605): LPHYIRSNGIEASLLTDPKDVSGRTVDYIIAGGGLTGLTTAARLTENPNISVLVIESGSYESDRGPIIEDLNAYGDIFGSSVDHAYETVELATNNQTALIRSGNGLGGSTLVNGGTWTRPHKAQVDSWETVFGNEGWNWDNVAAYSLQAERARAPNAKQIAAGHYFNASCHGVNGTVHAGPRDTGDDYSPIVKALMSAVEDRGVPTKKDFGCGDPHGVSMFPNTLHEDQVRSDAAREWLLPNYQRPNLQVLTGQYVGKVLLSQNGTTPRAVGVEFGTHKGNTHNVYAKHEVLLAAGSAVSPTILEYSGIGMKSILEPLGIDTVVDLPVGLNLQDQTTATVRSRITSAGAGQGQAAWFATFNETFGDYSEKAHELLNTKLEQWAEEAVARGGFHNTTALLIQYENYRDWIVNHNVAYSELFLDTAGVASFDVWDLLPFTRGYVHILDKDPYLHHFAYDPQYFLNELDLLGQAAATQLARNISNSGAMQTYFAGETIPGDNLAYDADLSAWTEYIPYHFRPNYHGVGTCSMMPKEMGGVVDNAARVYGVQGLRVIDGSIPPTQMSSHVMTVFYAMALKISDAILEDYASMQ
# ASSAY EXPLANATION: Activity recovery of glucose oxidase in dry formulations following gamma irradiation
# Assay type: physicochemical
# CONDITION SUMMARY: Table 3, prior-art antioxidants; glucose oxidase 350 μg mL^−1 prior to drying; dry; 25-40 kGy, ambient temperature; vs non-irradiated
Where a SMILES comes first, the peptide text is derived from it.
RESULT TYPE: Enzyme activity remaining after gamma-irradiation (%)
# output: bare number, implied unit %

query: Fill in reported Enzyme activity remaining after gamma-irradiation for this entry: Cc1c(C)c2c(c(C)c1O)CCC(C)(C(=O)O)O2 (centres unmarked)
result: 45.9

query: Report Enzyme activity remaining after gamma-irradiation, nothing else, for this molecule: Oc1nc(O)c2nc(O)[nH]c2n1 [Urate]
result: 32.6

query: Output Enzyme activity remaining after gamma-irradiation of N[C@@H](CS)C(=O)O
result: 49.1

query: Read off the recorded Enzyme activity remaining after gamma-irradiation for CSCC[C@H](N)C(=O)O
result: 61.3

query: Using known records, supply Enzyme activity remaining after gamma-irradiation for NCC(=O)NCC(=O)O [Glycylglycine] (H-Gly-Gly-OH)
result: 20.1

* * *

# ASSAYED SYSTEM: human growth hormone (Homo sapiens)
# Construct: purchased National Institute of Biological Standards and Control; further samples on prescription from a GP surgery
# Sequence (P01241 27-217): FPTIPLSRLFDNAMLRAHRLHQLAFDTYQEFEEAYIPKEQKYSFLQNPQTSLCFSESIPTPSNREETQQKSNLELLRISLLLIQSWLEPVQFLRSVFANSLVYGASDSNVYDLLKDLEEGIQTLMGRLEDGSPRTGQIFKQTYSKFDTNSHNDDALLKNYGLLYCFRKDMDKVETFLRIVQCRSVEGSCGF
# ASSAY EXPLANATION: Recovery of structural integrity of human growth hormone in dry formulations following gamma irradiation (HPLC)
# Format: physicochemical
# CONDITION SUMMARY: Table 7, singlet oxygen scavengers, structural integrity by HPLC, human growth hormone 2.5 mg mL^−1 prior to drying, 25-40 kGy
# Method: In each example, an aqueous solution of a protein was prepared with selected additives in an Eppendorf tube or in a glass vial. Water was removed from the formulation by drying under a stream of nitrogen at 30° C. and subsequent incubation at atmospheric pressure in the presence of a dessicant. […] The gamma-irradiated samples were reconstituted on their return and analysed for protein activity or structural integrity. […]
RESULT TYPE: Structural integrity remaining after gamma-irradiation (HPLC) (%)
Please state the figure in %; there is no need to write the unit.

query: Please indicate Structural integrity remaining after gamma-irradiation (HPLC) recorded for CSCC[C@H](N)C(=O)O
result: 69.7

query: Specify measured Structural integrity remaining after gamma-irradiation (HPLC) for N[C@@H](Cc1c[nH]cn1)C(=O)O .
result: 55.5

query: Given Cc1ncc(C[n+]2csc(CCO)c2C)c(N)n1 , respond with its Structural integrity remaining after gamma-irradiation (HPLC).
result: 48.8

query: Find the measured Structural integrity remaining after gamma-irradiation (HPLC) of N[C@@H](Cc1c[nH]c2ccccc12)C(=O)O and report it.
result: 54.6
